biological target: T1, recombinant human PD-1 Fc chimera (human, UniProt Q15116 25-167); experiment: SPR Biacore T200, single cycle kinetics, human PD-1-hu Fc amine coupled to CM5, 1:1 model
T1 construct: Bought protein (R&D 1086-PD in the HTRF assay); also called human PD-1-hu Fc; huPD-1Fc; not shown: human Fc
T1 sequence (Q15116 25-167 limits assumed, stated change not applied): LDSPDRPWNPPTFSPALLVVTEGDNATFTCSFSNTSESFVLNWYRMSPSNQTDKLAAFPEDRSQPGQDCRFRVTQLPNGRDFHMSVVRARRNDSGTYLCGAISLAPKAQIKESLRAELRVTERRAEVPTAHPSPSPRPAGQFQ
Measured kon by item

{"BINDER": "1.57b (VHH) VHH: QVQLVESGGGLVKPGGSLRLSCAASGFTFSDNSMTWMRQAPGKGLEWVSYISSGGGVIFYADSVKGRFTISRDNAKNSLYLQMNSLRADDTAVYYCAREAPLRLGESPHDAFDISGQGTMVTVSS", "kon, M⁻¹ s⁻¹": 537000}
{"BINDER": "1.1b-4GS-1.1a (other, Biparatopic VH-linker-VH) QVQLVESGGGLVKPGGSLRLSCAASGFTFSDYTMTWMRQAPGKGLEWVSYISTGGTIKYYTDSVKGRFTISRDNAKNSLYLQMNSLRADDTAVYYCAREAPLRLGESPHDAFDIWGQGTMVTVSSGGGGSGGGGSGGGGSGGGGSEVQLLESGGGSVQPGRSLRLSCAASGFTFDDHAMHWVRQAPGKGLEWVSGISWNSGSMGYADSVKDRFTISRDNAKSSLYLQMNSLRAEDTALYYCVREKGPGLTGSTADYYGLDVWGQGTMVTVSS", "kon, M⁻¹ s⁻¹": 316000}
{"BINDER": "1.1b-6GS-1.1a (other, Biparatopic VH-linker-VH) QVQLVESGGGLVKPGGSLRLSCAASGFTFSDYTMTWMRQAPGKGLEWVSYISTGGTIKYYTDSVKGRFTISRDNAKNSLYLQMNSLRADDTAVYYCAREAPLRLGESPHDAFDIWGQGTMVTVSSGGGGSGGGGSGGGGSGGGGSGGGGSGGGGSEVQLLESGGGSVQPGRSLRLSCAASGFTFDDHAMHWVRQAPGKGLEWVSGISWNSGSMGYADSVKDRFTISRDNAKSSLYLQMNSLRAEDTALYYCVREKGPGLTGSTADYYGLDVWGQGTMVTVSS", "kon, M⁻¹ s⁻¹": 228000}
